Would you kindly list z-score for each of these compounds?
assay: DUSP6 inhibitors restoring Erk phosphorylation by chemical complementation, primary imaging in DUSP6-transfected HeLa (AID 609); details: HeLa MKP-3 transfected, phospho-Erk imaging KS statistic; measured here: nuclear pErk red intensity z-score; at 10 µM; stronger effect = higher value; cells stimulated with TPA for 15 min

# z-score of CC/C(C)=C1\SC(N2CCN(C(C)=O)CC2)=NC1=O = 0.531

// z-score value for O=S(=O)(NCc1cccnc1)c1cccc2nsnc12 : 0.356

// z-score lookup, compound = CCn1nnc(C(=O)O)c1C(=O)O , result: 0.467

Memo: CCCC(=O)Nc1ncnc2c1ncn2[C@@H]1O[C@@H]2COP(=O)(O)O[C@H]2[C@H]1OC(=O)CCC , reported z-score: 0.177

What the record says about CC1(C(=O)O)CCC(C(=O)NC2CCCCCC2)C1(C)C (stereo unspecified) : z-score is -1.37

Kindly note the recorded z-score for CCN(CC)CCN1C(=O)C(=O)/C(=C(/O)c2ccc(F)cc2)C1c1ccncc1 (stereo unspecified) , which is -0.561

* * *

assay: DUSP6 inhibitors restoring Erk phosphorylation by chemical complementation, primary imaging in DUSP6-transfected HeLa (AID 609); settings: HeLa MKP-3 transfected, phospho-Erk imaging KS statistic; measured here: cell density z-score; at 10 µM; cells stimulated with TPA for 15 min
Entries get a class label from measured z-score. See ranges: bottom range = under -0.6, center range = from -0.6 up to 0.5, top range = 0.5 and over

Prompt line: Textbook exercise: identify the category of the compound given here, CN(C)c1ccc(C=NCC2(O)CCOC(C)(C)C2)cc1 (configuration not stated) , according to its measured value.
Response line: bottom range

Prompt line: Could you place CCCc1cc(-c2nc(N)ncc2-c2ccc3c(c2)OCCCO3)c(O)cc1OC in its proper category? Many thanks.
Response line: top range

Prompt line: Form field 'band' for CN1C2C=C3C(C#N)=C(N)C(C#N)(C#N)[C@@H](c4cccs4)C3C1CC2 (some centres not stated)
Response line: center range

Prompt line: Which z-score category applies to COC(=O)C(NC(C)=O)(Nc1nc2ccc(S(C)(=O)=O)cc2s1)C(F)(F)F (configuration not stated) here?
Response line: bottom range

Prompt line: Bin this entry: COc1cc(-n2c3nc4ccccc4nc3c3c(=O)n(Cc4ccco4)cnc32)cc(OC)c1OC
Response line: bottom range

Prompt line: Category of COc1ccccc1-n1c(=O)c2c3c(sc2n2c(SC(C)C)nnc12)CCC3 , please.
Response line: top range

Prompt line: Class for CCOC(=O)c1ccccc1OCc1cc(/C=N/n2cncn2)ccc1OC ?
Response line: center range

Prompt line: Which bin, given its z-score, does Brc1c(NC2=NCCN2)ccc2nccnc12 occupy?
Response line: center range

Prompt line: GET /class?item= COc1ccccc1C1/C(=C(/O)c2ccc(C)cc2)C(=O)C(=O)N1Cc1ccco1 (configuration not stated)
Response line: top range

Prompt line: Bin? Cc1c(CCC#N)c(N2CCN(C3CCCCC3)CC2)n2c(nc3ccccc32)c1C#N
Response line: center range

* * *

assay: inhibitors of mutant huntingtin aggregation, primary screen, imaging, exon1htt(103Q)mCFP cells, high-content imaging (AID 483); details: exon1htt(103Q)mCFP cell line, aggregate imaging, at 2 µM; measured here: cell count, toxicity;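 note: compound exposure lasted 3 days before fixation; percent of the per-plate median nuclei count of sample wells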
recorded metric: nuclei count (%)
Answer in %, number only, no unit symbol.

Please fill in: nuclei count reported for COC(=O)C(NC(C)=O)(Nc1ccccn1)C(F)(F)F (stereo not given) = 111

For record OCCN1CCN(CCCN2c3ccccc3Sc3ccc(C(F)(F)F)cc32)CC1 the listed nuclei count is 91.7

The compound identified as COc1cccc(N2C(=O)C(O)=C(C(C)=O)C2c2ccc(OC)c(OC)c2)c1 (stereo not given) registered its nuclei count at 104

The compound listed as CCCCNc1cc(C(=O)O)cc(S(N)(=O)=O)c1Oc1ccccc1 has a reported nuclei count of 110

Value of measured nuclei count for the entry CCC1=C(C(=O)OC)C(c2cc(OC)ccc2OC)C(C#N)=C(N)O1 (stereo not given) : 106

* * *

target: Alpha-2C adrenergic receptor (Homo sapiens); assay: modulators of alpha2C/GIRK thallium flux, primary screen, cell-based, HEK293 alpha2C/GIRK1/2 (AID 624); conditions: thallium flux BTC fluorescence, at 10 µM, actives lie on both sides;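 note: slope of fluorescence ratio to pre-addition baseline per second over 15 to 24 s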
Please provide measured slope for the entries that follow.
Write no unit; give the number alone.

GET /value?item= O=C(O)c1cc2cc(F)ccc2[nH]1 &field=slope returns 0.00488

For this compound ( COc1ccc(Oc2nc3c(c(=O)n(C)c(=O)n3C)n2Cc2cccc(OC)c2)cc1 ), measured slope is 0.00507

// slope lookup, compound = COc1ccc(C=NCCCN2CCOCC2)cc1 , result: 0.00493

Item: Cc1cn2c(-c3ccncc3)nnc2s1 | slope: 0.0059

Measured slope of CCOc1nc(Oc2cccc(C(=O)O)c2)nc(Oc2cccc(C(=O)O)c2)n1 : 0.00497

* * *

experiment: DUSP6 inhibitors restoring Erk phosphorylation by chemical complementation, primary imaging in DUSP6-transfected HeLa (AID 609); conditions: HeLa MKP-3 transfected, phospho-Erk imaging KS statistic; measured here: nuclear c-Myc green intensity z-score; at 10 µM; cells stimulated with TPA for 15 min
recorded metric: z-score
Form: value (number only, do not type unit).

Noted for O=C1OC(c2ccc(O)cc2)(c2ccc(O)cc2)c2ccccc21 : its z-score reads -0.265

z-score reported for this molecule Cc1cc(=O)oc2cc(OCCSCCN3CCOCC3)ccc12 : 0.929

z-score recorded for this molecule, O=CN1CCN(C(=O)CN2C(=O)c3ccccc3C2=O)CC1 , is -0.0272

GET /value?item= COc1ccc(C(C)=O)cc1CSCCC(=O)O &field=z-score returns -1.72

What the record says about CN1CCN(Cc2c(O)ccc3c(-c4ccccc4)cc(=O)oc23)CC1 : z-score is -1.09

Lab note: measured z-score of COc1ccccc1N1C(=O)C2ON(c3ccccc3)C(c3ccc(N(C)C)cc3)C2C1=O (stereo not given) was 0.301

Value of z-score reported for the molecule CC(C(=O)N1CCOCC1)N1C(=O)c2ccccc2C1=O (stereo not given) is -0.122

For this molecule ( S=c1[nH]nc(-c2ccco2)n1Cc1ccccc1 ), measured z-score is 1.31

Documented z-score of CCCn1c(=O)[nH]c(=O)c2[nH]cnc21 : -1.33

Consider CN(C)c1ccc(C2C3C(=O)N(c4ccc(C(=O)O)cc4)C(=O)C3ON2c2ccccc2)cc1 (stereo not given) . Its measured z-score is -1.46

z-score measured on CC1=CC=CN2CC(O)CN=C12 (stereo not given) = 1.89

// O=C(CCC1CCCC1)N1CCC(N2CCN(c3ccccc3)CC2)CC1 : z-score value = 0.889

Briefly, z-score measured for COc1ccc2[nH]c3c(N4CCN(Cc5ccc6c(c5)OCO6)CC4)ncnc3c2c1 : -0.34

Reported z-score ( CC(C(=O)N1CCCCC1)N1C(=O)c2ccccc2C1=O (stereo not given) ) = -0.711

Value of z-score reported for the molecule N#CC1=C(SCC(=O)c2ccccc2)NC2=C(C(=O)CCC2)C1c1ccco1 (stereo not given) is 2.65

Entry O=C(NC1CCCCC1)N1CCSC1=Nc1ccccc1 , z-score reported as -1.53

Measured z-score of C/C(=N\O)C(=O)NCCCNCCCN(C)C : 0.664

Given item Clc1ccccc1CSc1nnc(-c2ccco2)c(-c2ccco2)n1 , the value recorded as its z-score is 0.808

So, COc1ccc(C(=O)N2CCC(N3CCN(c4ccccc4)CC3)CC2)cc1OC ? Its z-score was -0.675

Reported z-score ( Clc1cccc(-c2nn3c(COc4ccccc4)nnc3s2)c1 ) = 0.334

* * *

Could you please report measured inhibition for the items listed next?
test: inhibitors of poly I:C-induced TLR3 signaling, primary screen, cell-based, poly I:C stimulus, luciferase, 10K MLSCN set (AID 602277); conditions: HEK293-TLR3 RL24 IRF3 luciferase reporter, at 10 µM, stronger effect = higher value
Return type: number; implicit unit %.

Summary for this compound, OCCNC1=NCCN1 : inhibition is 20.3

Reported inhibition of CCCc1nc(N2CCOCC2)c(C#N)c2c1CCCC2 : 22.6

The value of inhibition measured for the compound CC(=O)c1c(OCC(=O)O)ccc2c(C)cc(=O)oc12 turned out to be 17.3

// sample C=C(C)C1Cc2c(C)nn(-c3nc(C)cc(C)n3)c2C1 (stereo unspecified) , its inhibition was 16.4

For record N#C/C(C(=O)N1CCOCC1)=C1/SC(Cc2ccccc2)C(=O)N1c1ccccc1 (stereo unspecified) the listed inhibition is 24.9

Short answer for COC(=O)c1cc(Br)c(=O)n(CCc2ccc(F)cc2)c1 : inhibition was 5.55

* * *

assay: inhibitors of E-selectin induction by TNFa, primary screen, imaging, HUVEC, immunofluorescence, MLSMR starter and 10KST1 sets (AID 487); conditions: HUVEC TNFalpha-induced E-selectin immunofluorescence imaging, at 2 µM; measured here: cell number, toxicity;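 note: 100% = median nuclei count of all wells on the same plate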
recorded metric: nuclei count (%)
Dear colleague, please return just the value in %, with no unit written.

Reported nuclei count ( Cc1ccc(C(C)C)c(OCCNc2nc3c(c(=O)n(C)c(=O)n3C)n2C)c1 ) = 165

Data point: N#Cc1c(N)n(CCOC(=O)c2cccc(Br)c2)c2nc3ccccc3nc12 ; nuclei count = 108

Looking up NC(Cc1ccc(Oc2ccc(O)cc2)cc1)C(=O)O (centres undefined) , I see its nuclei count listed as 103

Lab book: nuclei count of COc1cc(C2C3C(=O)N(c4ccccc4)C(=O)C3ON2c2ccccc2)ccc1O (centres undefined) noted as 171

Kindly note the recorded nuclei count for CC(C)Oc1ccc(Cc2c(O)nc(NCCCN(C)C)[nH]c2=O)cc1 , which is 152

For this compound ( O=c1oc2c3c4c(cc2c(C(F)(F)F)c1CCN1CCOCC1)CCCN4CCC3 ), measured nuclei count is 160

nuclei count reading for N#Cc1c(N)nc(SCc2ccccn2)c(C#N)c1-c1cccs1 : 176

// nuclei count lookup, compound = CCOc1ccc(C2=Nn3c(nnc3-c3ccccn3)SC2)cc1 , result: 107

The value of nuclei count measured for the compound CCOC(=O)c1c(C)n(C)c2ccc(O)c(S(=O)(=O)c3ccccc3)c12 turned out to be 109
